EXPERIMENTAL DETAILS: Single vs multiple-dose
Assay type: in vivo, human
SETUP CONDITIONS: human, plasma, oral, 200 mg
VALUE KIND: concentration at 24 h
Form entry: enter the amount, then its unit.

Lookup result for "CCCS(=O)(=O)N[C@H]1C[C@@H](N(C)c2ncnc3[nH]ccc23)C1" ; measured concentration at 24 h: 11.3 ng/mL
